system_name: FAAH (Mus musculus)
Construct: Proteomes (mouse brain membrane fraction or cell lysates); from tissue; host or cells: mouse brain membrane fraction (or cell lysates, not specified)
experiment_summary: In vitro competitive activity-based protein profiling (gel-based, FP-Rh or HT-01 probe)
Type: biochemical
measurement_conditions: 10 μM inhibitor; read-out: % Inhibition at 10 μM, B = FAAH
For each of the compounds below, state its inhibition at 10 µM.

(Q) I would be grateful if you could share the reported inhibition at 10 µM for O=C(c1ccccc1)N1CCN(C(=O)n2cc(C(F)(F)F)cn2)CC1 .
(A) 25 to 75%

(Q) Lookup Cc1cnn(C(=O)NCc2ccc3ccccc3c2)c1
(A) < 25%

(Q) Lookup O=C(c1cnn(C(=O)N2CCN(Cc3ccncn3)CC2)c1)N1CCCCC1
(A) 25 to 75%

(Q) Lookup Cc1cc(-c2ccccc2)ccc1CN1CCN(C(=O)n2cc(C#N)cn2)CC1
(A) > 75%

(Q) Lookup Cc1cnn(C(=O)N2CCN(Cc3ccc4ccccc4c3)CC2)c1
(A) 25 to 75%

(Q) Lookup N#Cc1cnn(C(=O)N2CCN(Cc3ccc4ccccc4c3)CC2)c1
(A) > 75%

(Q) Lookup COc1cc(-c2ccccc2)ccc1CN1CCN(C(=O)n2cc(C#N)cn2)CC1
(A) > 75%

(Q) Lookup O=C(N1CCN(Cc2ccc(-c3ccccc3)cc2OCc2ccccc2)CC1)n1cc(C(F)(F)F)cn1
(A) > 75%

(Q) Lookup CCN(Cc1ccc(C)cc1)C(=O)n1cc(Cl)cn1
(A) > 75%

(Q) Lookup CC(=O)N1CCN(C(=O)n2cc(Cl)cn2)CC1
(A) < 25%

* * *

For each of the compounds below, state its inhibition at 10 µM.
system_name: FAAH (Mus musculus)
Construct: Proteomes (mouse brain membrane fraction or cell lysates); from tissue; host or cells: mouse brain membrane fraction (or cell lysates, not specified)
experiment_summary: In vitro competitive activity-based protein profiling (gel-based, FP-Rh or HT-01 probe)
Type: biochemical
measurement_conditions: 10 μM inhibitor; read-out: % Inhibition at 10 μM, B = FAAH

(Q) I would be grateful if you could share the reported inhibition at 10 µM for Cc1cnn(C(=O)N2CCCN(Cc3ccccc3)CC2)c1 .
(A) < 25%

(Q) Lookup CS(=O)(=O)N1CCN(C(=O)n2cc(Cl)cn2)CC1
(A) 25 to 75%

(Q) Lookup CC(=O)N1CCN(C(=O)n2cc(C)cn2)CC1
(A) < 25%

(Q) Lookup O=C(N1CCN(Cc2ccc(C(F)(F)F)cc2N2CCCC2)CC1)n1cc(-c2ccccc2C(F)(F)F)cn1
(A) 25 to 75%

(Q) Lookup Cc1cnn(C(=O)NCCCc2ccccc2)c1
(A) < 25%

(Q) Lookup O=C(c1cnn(C(=O)N2CCN(Cc3ccccn3)CC2)c1)N1CCCC1
(A) > 75%

(Q) Lookup O=C(N1CCN(Cc2ccccc2)CC1)n1cc(C(F)(F)F)cn1
(A) > 75%

(Q) Lookup O=C(N1CCN(Cc2ccc(N3CCCC3)cc2)CC1)n1cc(Cl)cn1
(A) > 75%

(Q) Lookup O=C(N1CCN(C(c2ccc(Cl)cc2)c2ccc(Cl)cc2)CC1)n1cc(C(F)(F)F)cn1
(A) > 75%

(Q) Lookup N#Cc1cnn(C(=O)N2CCCN(Cc3ccccc3)CC2)c1
(A) > 75%

(Q) Lookup O=C(N1CCN(Cc2ccc3ccccc3c2)CC1)n1cc(I)cn1
(A) > 75%

(Q) Lookup O=C(N1CCN(c2ccccc2N2CCCC2)CC1)n1cc(C(F)(F)F)cn1
(A) > 75%

(Q) Lookup CN1CCN(C(=O)n2cc(C(F)(F)F)cn2)CC1
(A) > 75%

(Q) Lookup CN1CCCN(C(=O)n2cc(C(F)(F)F)cn2)CC1
(A) 25 to 75%

(Q) Lookup O=C(N1CCCCC1)n1cc(C(F)(F)F)cn1
(A) > 75%

(Q) Lookup N#Cc1cnn(C(=O)N2CCN(Cc3ccc(Oc4ccccc4)cc3)CC2)c1
(A) > 75%

(Q) Lookup O=C(c1cnn(C(=O)N2CCN(Cc3cncnc3)CC2)c1)N1CCCCC1
(A) < 25%

(Q) Lookup O=C(NCCCc1ccccc1)n1cccn1
(A) < 25%

(Q) Lookup CC(C)(C)OC(=O)N1CCN(C(=O)n2cc(C#N)cn2)CC1
(A) > 75%

(Q) Lookup CC(C)(C)OC(=O)N1CCN(C(=O)n2cccn2)CC1
(A) > 75%

(Q) Lookup O=C(N1CCCCC1)n1cc(-c2ccccc2)cn1
(A) > 75%

(Q) Lookup O=C(N1CCN(Cc2ccc(C(F)(F)F)cc2)CC1)n1cc(Cl)cn1
(A) > 75%

(Q) Lookup O=C(N1CCN(c2cccc(N3CCOCC3)c2)CC1)n1cc(C(F)(F)F)cn1
(A) > 75%

(Q) Lookup Cc1ccccc1N1CCN(C(=O)n2cc(C(F)(F)F)cn2)CC1
(A) > 75%

(Q) Lookup Cc1cnn(C(=O)N2CCN(C(=O)c3ccccc3)CC2)c1
(A) < 25%

(Q) Lookup Cc1cc(-c2ccccc2)ccc1CN1CCN(C(=O)n2cc(C(F)(F)F)cn2)CC1
(A) > 75%

(Q) Lookup O=C(N1CCN(c2ccc(Cl)cc2)CC1)n1cc(C(F)(F)F)cn1
(A) > 75%

(Q) Lookup CC(C)c1cnn(C(=O)N2CCN(C(c3ccc(Cl)cc3)c3ccc(Cl)cc3)CC2)c1
(A) < 25%

(Q) Lookup N#Cc1cnn(C(=O)N2CCCCC2)c1
(A) > 75%

(Q) Lookup CN(CCN(C)C(=O)n1cccn1)C(=O)OC(C)(C)C
(A) 25 to 75%

(Q) Lookup O=C(c1ccccc1)N1CCCN(C(=O)n2cc(Cl)cn2)CC1
(A) > 75%

(Q) Lookup O=C(N1CCN(C(c2ccc(Cl)cc2)c2ccc(Cl)cc2)CC1)n1cc(-c2ccc(C(F)(F)F)cc2)cn1
(A) < 25%

* * *

system_name: ABHD6 (Mus musculus, UniProt Q8R2Y0)
Construct: Proteomes (mouse brain membrane fraction or cell lysates); from tissue; host or cells: mouse brain membrane fraction (or cell lysates, not specified)
Sequence (Q8R2Y0 whole entry): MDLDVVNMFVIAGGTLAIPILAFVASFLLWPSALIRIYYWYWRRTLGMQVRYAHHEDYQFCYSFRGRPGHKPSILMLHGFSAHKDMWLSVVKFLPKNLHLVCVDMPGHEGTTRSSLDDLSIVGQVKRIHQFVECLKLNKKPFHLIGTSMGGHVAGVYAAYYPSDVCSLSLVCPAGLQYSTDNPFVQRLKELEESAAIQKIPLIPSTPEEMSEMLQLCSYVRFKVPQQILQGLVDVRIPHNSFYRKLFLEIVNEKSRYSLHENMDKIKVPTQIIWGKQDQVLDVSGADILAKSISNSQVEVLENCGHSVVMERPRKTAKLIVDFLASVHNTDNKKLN
experiment_summary: In vitro competitive activity-based protein profiling (gel-based, FP-Rh or HT-01 probe)
Format: biochemical
measurement_conditions: 1 μM inhibitor; read-out: % Inhibition at 1 μM, C = ABHD6
For each of the compounds below, state its inhibition at 1 µM.

(Q) I would be grateful if you could share the reported inhibition at 1 µM for CC(=O)N(C)CCN(C)C(=O)n1cc(C#N)cn1 .
(A) < 25%

(Q) Lookup O=C(c1cnn(C(=O)N2CCN(Cc3nccs3)CC2)c1)N1CCOCC1
(A) 25 to 75%

(Q) Lookup CS(=O)(=O)N1CCCN(C(=O)n2cc(C(F)(F)F)cn2)CC1
(A) < 25%

(Q) Lookup Cc1cc(-c2ccccc2)ccc1CN1CCN(C(=O)n2cc(C(=O)N3CCCC3)cn2)CC1
(A) > 75%

(Q) Lookup O=C(N1CCN(Cc2c(N3CCCC3)cccc2C(F)(F)F)CC1)n1cc(C(F)(F)F)cn1
(A) > 75%

(Q) Lookup O=C(N1CCN(Cc2ccc(C(F)(F)F)cc2N2CCCC2)CC1)n1cc(-c2ccc(C(F)(F)F)cc2)cn1
(A) > 75%

(Q) Lookup O=C(c1cnn(C(=O)N2CCN(Cc3ccc4c(c3)OCO4)CC2)c1)N1CCCCC1
(A) > 75%

(Q) Lookup N#Cc1cnn(C(=O)N2CCCN(Cc3ccccc3)CC2)c1
(A) > 75%

(Q) Lookup CN1CCN(C(=O)n2cc(Cl)cn2)CC1
(A) > 75%

(Q) Lookup O=C(N1CCN(c2cccc(N3CCCC3)c2)CC1)n1cc(C(F)(F)F)cn1
(A) > 75%

(Q) Lookup CC(=O)N1CCCN(C(=O)n2cc(C#N)cn2)CC1
(A) < 25%

(Q) Lookup O=C(c1cnn(C(=O)N2CCN(C(c3ccc(Cl)cc3)c3ccc(Cl)cc3)CC2)c1)N1CCOCC1
(A) > 75%

(Q) Lookup O=C(c1cnn(C(=O)N2CCN(Cc3cccnc3)CC2)c1)N1CCOCC1
(A) < 25%

(Q) Lookup Cc1cc(N2CCOCC2)ccc1CN1CCN(C(=O)n2cc(Cl)cn2)CC1
(A) > 75%

* * *

For each of the molecules below, state its inhibition at 1 µM.
system_name: FAAH (Mus musculus, UniProt O08914)
Construct: Proteomes (mouse brain membrane fraction or cell lysates); from tissue; host or cells: mouse brain membrane fraction (or cell lysates, not specified)
Sequence (O08914 whole entry): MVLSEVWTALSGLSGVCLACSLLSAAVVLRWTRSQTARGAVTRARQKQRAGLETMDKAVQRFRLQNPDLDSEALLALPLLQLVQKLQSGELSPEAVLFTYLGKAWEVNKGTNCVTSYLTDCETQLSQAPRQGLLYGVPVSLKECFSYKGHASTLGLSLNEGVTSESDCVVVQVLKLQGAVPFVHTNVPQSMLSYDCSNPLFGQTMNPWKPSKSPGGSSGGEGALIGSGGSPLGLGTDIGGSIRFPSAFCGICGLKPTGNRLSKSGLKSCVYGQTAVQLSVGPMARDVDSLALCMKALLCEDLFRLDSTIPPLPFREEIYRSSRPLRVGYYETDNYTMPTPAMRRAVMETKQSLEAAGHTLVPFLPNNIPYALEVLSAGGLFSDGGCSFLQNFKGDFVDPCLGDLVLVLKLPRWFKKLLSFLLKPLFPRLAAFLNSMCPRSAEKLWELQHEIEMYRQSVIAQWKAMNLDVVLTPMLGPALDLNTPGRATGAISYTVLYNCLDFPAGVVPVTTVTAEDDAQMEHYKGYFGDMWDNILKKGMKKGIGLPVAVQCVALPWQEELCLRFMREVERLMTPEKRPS
experiment_summary: In vitro competitive activity-based protein profiling (gel-based, FP-Rh or HT-01 probe)
Type: biochemical
measurement_conditions: 1 μM inhibitor; read-out: % Inhibition at 1 μM, B = FAAH

(Q) I would be grateful if you could share the reported inhibition at 1 µM for O=C(c1ccccc1)N1CCN(C(=O)n2cc(C(F)(F)F)cn2)CC1 .
(A) < 25%

(Q) Lookup CC(=O)N1CCN(C(=O)n2cc(C)cn2)CC1
(A) < 25%

(Q) Lookup O=C(N1CCCCC1)n1cccn1
(A) < 25%

(Q) Lookup O=C(N1CCN(C(c2ccc(Cl)cc2)c2ccc(Cl)cc2)CC1)n1cc(C(F)(F)F)cn1
(A) < 25%

(Q) Lookup CC(C)(C)OC(=O)N1CCCN(C(=O)n2cc(C#N)cn2)CC1
(A) > 75%

(Q) Lookup CC(C)(C)OC(=O)N1CCN(C(=O)n2cc(C#N)cn2)CC1
(A) > 75%

(Q) Lookup CCN(Cc1ccccc1C)C(=O)n1cc(Cl)cn1
(A) < 25%

(Q) Lookup O=C(N1CCN(Cc2ccc(-c3ccccc3)cc2OCc2ccccc2)CC1)n1cc(Cl)cn1
(A) > 75%

(Q) Lookup O=C(N1CCCC1)n1cc(C(F)(F)F)cn1
(A) > 75%

(Q) Lookup N#Cc1cnn(C(=O)N2CCN(c3ccccc3)CC2)c1
(A) > 75%

(Q) Lookup N#Cc1cnn(C(=O)N2CCN(Cc3ccc(-c4ccccc4)cc3)CC2)c1
(A) > 75%

(Q) Lookup O=C(Nc1ccc2ccccc2c1)n1cccn1
(A) < 25%

(Q) Lookup Cc1cnn(C(=O)N2CCN(C)CC2)c1
(A) < 25%

(Q) Lookup Cc1cc(-c2ccccc2)ccc1CN1CCN(C(=O)n2cc(Cl)cn2)CC1
(A) > 75%

(Q) Lookup N#Cc1cnn(C(=O)N2CCN(Cc3ccc(OCc4ccccc4)cc3)CC2)c1
(A) > 75%
